biological target: AbaR (Acinetobacter nosocomialis); assay: AbaR antagonism reporter gene; format: cell-based, Acinetobacter baumannii
Sequence (A0A0N8YGA2 whole entry): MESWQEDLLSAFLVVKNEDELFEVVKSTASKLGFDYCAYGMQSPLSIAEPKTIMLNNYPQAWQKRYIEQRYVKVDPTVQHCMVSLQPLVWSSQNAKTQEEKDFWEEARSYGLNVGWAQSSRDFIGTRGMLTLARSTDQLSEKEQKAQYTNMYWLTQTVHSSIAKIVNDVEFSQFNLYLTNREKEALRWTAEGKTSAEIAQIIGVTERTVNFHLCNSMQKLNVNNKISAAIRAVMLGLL
Please note: IC50 exactly at 8 µM is NO. Only values below 8 µM get YES.

Example cases with answers are listed next.
> print(dat)
                        item.smiles  class.name
1  O=C(Cc1cccc(Br)c1)N[C@H]1CCOC1=O         YES
2   O=C(Cc1cccc(I)c1)N[C@H]1CCOC1=O         YES
3         CCCCCCC(=O)N[C@H]1CCOC1=O          NO
4     O=C(CCc1ccccc1)N[C@H]1CCOC1=O          NO

Asked: Quick check: IC50 of CCCCCC(=O)CC(=O)N[C@H]1CCOC1=O under 8 µM?
Given back: YES

Asked: Say whether its IC50 is strictly beneath 8 µM. Entry: O=C(Cc1ccccc1Br)N[C@H]1CCOC1=O
Given back: NO

Asked: Does this compound meet the criterion IC50 < 8 µM? O=C(Cc1ccccc1I)N[C@H]1CCOC1=O
Given back: YES

Asked: Could you please tell me whether IC50 recorded for O=C(Cc1cccc(Cl)c1)N[C@H]1CCOC1=O is less than 8 µM?
Given back: YES

Asked: A record lists O=C(Cc1ccc(I)cc1)N[C@H]1CCOC1=O . Is its IC50 below 8 µM?
Given back: YES

The reported measurements were obtained from paper PMC3477293.
